Target: IgE antibodies of the individual allergic patient serum II/12
Test: EAST inhibition, individual serum II/12
quantity-name: inhibition value (inhibitor concentration at 25% inhibition)
Please don't drop the unit; write it after the number.

Prompt line: What inhibition value (inhibitor concentration at 25% inhibition) value was documented for this binder, rPhl p 5b point mutant PM1 (N32D, D49L, K50A) (protein) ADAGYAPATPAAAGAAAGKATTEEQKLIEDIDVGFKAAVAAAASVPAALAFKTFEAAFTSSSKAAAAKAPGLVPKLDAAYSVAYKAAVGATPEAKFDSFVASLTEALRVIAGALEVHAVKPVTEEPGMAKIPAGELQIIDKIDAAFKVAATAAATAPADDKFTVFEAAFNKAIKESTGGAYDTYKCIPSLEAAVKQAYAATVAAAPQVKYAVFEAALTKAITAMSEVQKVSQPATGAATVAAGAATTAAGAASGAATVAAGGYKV ?
Response line: 1.3e-09 mol/L

Prompt line: Now the same for rPhl p 5b deletion mutant DM1 (deletion K50-P132, D49L) (protein) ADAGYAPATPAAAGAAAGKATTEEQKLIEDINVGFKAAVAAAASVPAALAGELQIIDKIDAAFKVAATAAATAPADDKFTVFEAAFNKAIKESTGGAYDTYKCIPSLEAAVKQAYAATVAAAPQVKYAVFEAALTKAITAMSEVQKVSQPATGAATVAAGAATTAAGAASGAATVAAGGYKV
Response line: 1.5e-05 mol/L

Prompt line: What do you have for recombinant Phl p 5b (wild type) (protein) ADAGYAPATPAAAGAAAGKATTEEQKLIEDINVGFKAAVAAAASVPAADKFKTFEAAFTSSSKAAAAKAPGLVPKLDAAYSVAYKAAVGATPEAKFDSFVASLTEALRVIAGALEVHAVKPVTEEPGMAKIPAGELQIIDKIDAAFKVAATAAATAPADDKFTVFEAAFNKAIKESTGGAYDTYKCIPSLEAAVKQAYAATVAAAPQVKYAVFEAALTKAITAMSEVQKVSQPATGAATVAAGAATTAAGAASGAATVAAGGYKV ?
Response line: 8.7e-10 mol/L
